molecular target: HA of ca A/Texas/36/91 (H1N1) (influenza A virus); experiment: cell-based or functional assay
measured.property: Neutralization IC50, H1-TX91 (µg/mL)
// note: answer is a bare numeric in µg/mL

q: Supply reported Neutralization IC50, H1-TX91 belonging to this binder: Antibody 10 (antibody, V domains shown) VH: QVQLQQSGPGLVKPSQTLSLTCAISGDSVSSNSATWNWIRQSPSRGLEWLGRTYYRSKWYNDYADFLKRRITINPDTSNNEVSLRLTSVTPDDTALYYCARGGHITVFGVNIDAFDVWGQGTMVTVSS VL: DIQMTQSPSSLSASVGDRITISCRTSQSLRSYLHWYQQKPGKAPKLLIYASSTLQSGVPSRFSGSGSGTDFTLTISNLQPEDFATYYCQLSRTFGQGTKVEIK
a: 0.48

Data provenance is patent US20160257732A1.
